system: Klebsiella pneumoniae expressing VIM-1 (IHMA599644); test: Antibiotic potentiation activity: synergistic concentration (MITC95) with imipenem, growth by OD600; assay type: cell-based; conditions: 95% inhibition of bacterial growth, strain IHMA599644
Catalogue of VIM1 KP599644 MITC95 readings, one per entry.
Give your result as the value with the unit written after it.

Example entries and their recorded answers appear below.
{"columns": ["COMPOUND", "MEASUREMENT TARGET", "VIM1 KP599644 MITC95"],
 "data": [
  ["CC(C)[C@H](C(=O)O)[C@H](Cc1ccc(NC(CO)CO)nc1)c1nnn[nH]1 [Example 141]", "Klebsiella pneumoniae expressing VIM-1 (IHMA599644)", "150 µM"],
  ["CC(C)C[C@H](C(=O)O)[C@H](Cc1ccc(-c2ccc3c(c2)CNC3)cn1)c1nnn[nH]1 [Example 99]", "Klebsiella pneumoniae expressing VIM-1 (IHMA599644)", "100 µM"],
  ["CC(C)C[C@H](C(=O)O)[C@H](Cc1ccc(CN)c(F)c1)c1nnn[nH]1 [Example 56]", "Klebsiella pneumoniae expressing VIM-1 (IHMA599644)", "18.8 µM"]
]}

## Input I'm curious: which VIM1 KP599644 MITC95 was measured for CCC[C@H](C(=O)O)[C@H](Cc1ccc(S(C)(=O)=O)cc1)c1nn[nH]n1 [Example 49] tested on Klebsiella pneumoniae expressing VIM-1 (IHMA599644)?
## Output 50 µM

## Input Notebook: pull reported VIM1 KP599644 MITC95 for Klebsiella pneumoniae expressing VIM-1 (IHMA599644), entry CC(C)C[C@H](C(=O)O)[C@H](Cc1ccc(N)nc1)c1nnn[nH]1 [Example 112, 2,2,2-trifluoroacetate]
## Output 5.5 µM

## Input Give VIM1 KP599644 MITC95 (Klebsiella pneumoniae expressing VIM-1 (IHMA599644)) of the following compound: CCC[C@H](C(=O)O)[C@H](Cc1ccc(N2CCC[C@H](N)C2)cc1)c1nn[nH]n1 [Example 230]
## Output 25 µM

## Input # query: VIM1 KP599644 MITC95 | item O=C(O)[C@@H](C1CCCC1)[C@H](Cc1ccc(-c2cn[nH]c2)cc1)c1nnn[nH]1 [Example 63] | system: Klebsiella pneumoniae expressing VIM-1 (IHMA599644)
## Output 18.8 µM

## Input Tell me reported VIM1 KP599644 MITC95 for CC(C)[C@H](C(=O)O)[C@H](Cc1ccc(N2CCC[C@@H]2CO)nc1)c1nnn[nH]1 [Example 127] , tested with Klebsiella pneumoniae expressing VIM-1 (IHMA599644).
## Output 200 µM

###

molecular target: VIM-1 (Pseudomonas aeruginosa); test: Enzyme activity: determination of IC50, fluorescence assay with CCF2-FA substrate; assay type: biochemical; settings: VIM-1 enzyme 30 pM, CCF2-FA 1.25 μM, 2 hours at 25° C.; read-out: VIM1 IC50
# IC50 listing for each entry below
Your answer is read as nM, so omit the unit and give the number.

{"columns": ["MOLECULE", "UNIT SPEC", "IC50"],
 "data": [
  ["CC(C)C[C@H](C(=O)O)[C@H](Cc1ccc(Oc2ccccc2C2CCCN2)nc1)c1nn[nH]n1 (stereo partly drawn) [Example 374]", "nM", 3],
  ["CC(C)C[C@H](C(=O)O)[C@H](Cc1ccc(C2=CCC(N)CC2)c(F)c1)c1nn[nH]n1 (stereo partly drawn) [Example 455, 2,2,2-trifluoroacetate]", "nM", 3.38]
]}

## Input Data request, read-out IC50, for "CCC[C@H](C(=O)O)[C@H](Cc1ccc(C(=O)NC2CC2)cc1)c1nnn[nH]1"
## Output 86
